- SYSTEM_NAME: T1, His-labeled human CD3E (human, UniProt P07766 23-126)
- T1 construct: also called human CD3E antigen; antigen CD3E; not shown: His label
- EXPERIMENTAL_DETAILS: BLI (Octet), method of Example 3: His-labeled human CD3E on Ni-NTA sensors
METRIC: kon (M⁻¹ s⁻¹)
Please reply with the bare figure in M⁻¹ s⁻¹ and do not write the unit itself.

For the binder shown here, humanized antibody AB621 (antibody, V domains shown) VH: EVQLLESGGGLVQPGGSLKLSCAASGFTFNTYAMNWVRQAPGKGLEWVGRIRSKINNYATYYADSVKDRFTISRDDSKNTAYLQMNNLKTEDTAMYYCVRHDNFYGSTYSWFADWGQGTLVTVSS VL: ELVVTQEPSLTVSPGGTVTLTCRSSTGVVTTSNHANWVQEKPDHLFTGLIGATNYRAPGTPARFSGSLLGGKAALTLSGVQPEDEAIYFCVLWYSNHWVFGGGTKLTVL , give the reported kon.
174000
